# TEST_SYSTEM: NLRP3 inflammasome (Homo sapiens, UniProt Q96P20)
# Construct: host or cells: THP-1 human monocytic cells, PMA-treated, stimulated with gramicidin
# Sequence (Q96P20 whole entry): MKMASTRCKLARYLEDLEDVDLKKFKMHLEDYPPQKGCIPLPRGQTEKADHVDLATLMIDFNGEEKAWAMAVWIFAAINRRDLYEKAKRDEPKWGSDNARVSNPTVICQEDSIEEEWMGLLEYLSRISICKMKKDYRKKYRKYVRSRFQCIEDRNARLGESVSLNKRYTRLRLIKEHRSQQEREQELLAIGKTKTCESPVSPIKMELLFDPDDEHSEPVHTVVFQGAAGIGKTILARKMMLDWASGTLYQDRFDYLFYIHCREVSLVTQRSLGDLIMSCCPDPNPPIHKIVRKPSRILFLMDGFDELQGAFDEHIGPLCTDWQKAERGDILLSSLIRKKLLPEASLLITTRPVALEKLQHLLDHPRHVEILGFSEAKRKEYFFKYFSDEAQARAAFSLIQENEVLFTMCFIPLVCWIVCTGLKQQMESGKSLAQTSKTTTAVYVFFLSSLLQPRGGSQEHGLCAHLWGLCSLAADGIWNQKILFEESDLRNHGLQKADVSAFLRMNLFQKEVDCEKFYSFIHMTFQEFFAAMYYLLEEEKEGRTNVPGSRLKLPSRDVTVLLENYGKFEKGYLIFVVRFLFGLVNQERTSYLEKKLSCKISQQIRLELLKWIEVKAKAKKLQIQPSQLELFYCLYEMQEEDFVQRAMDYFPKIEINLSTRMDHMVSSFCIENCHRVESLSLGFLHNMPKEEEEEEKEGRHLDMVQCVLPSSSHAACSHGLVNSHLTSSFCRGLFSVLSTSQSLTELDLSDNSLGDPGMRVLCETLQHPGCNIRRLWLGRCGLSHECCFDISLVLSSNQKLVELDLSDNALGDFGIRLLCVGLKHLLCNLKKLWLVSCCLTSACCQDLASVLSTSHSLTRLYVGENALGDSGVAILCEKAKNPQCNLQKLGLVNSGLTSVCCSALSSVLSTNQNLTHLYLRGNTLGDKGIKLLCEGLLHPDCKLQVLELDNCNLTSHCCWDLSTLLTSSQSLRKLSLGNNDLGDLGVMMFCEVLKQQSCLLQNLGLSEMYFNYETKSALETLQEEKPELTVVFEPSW
# TEST: ASC-SPECK formation in THP-1 cells after gramicidin stimulation (NLRP3 inflammasome activation)
# Type: cell-based
# ASSAY_SETUP: PMA-treated human monocytic THP-1 cells, compound 1 h before 12.5 ug/ml gramicidin, 3 h, ASC SPECK imaging; read-out: EC50 (nM) for Examples that inhibit NLRP3 inflammasome activation
Examples of compounds with documented EC50 follow.
Respond numerically; units are nM and should not be typed.

CC(C)(O)[C@H]1CCN(c2nnc(-c3ccc(C(F)(F)F)cc3O)c3cccnc23)C1 [Example 50] ... 1330

[in] Fill in the blank: the reported EC50 of C[C@@H]1CN(c2nnc(-c3ccc(C(F)(F)F)cc3O)c3ccnnc23)C[C@H](C)O1 [Example 8] is ____.
[out] 515

[in] Recorded EC50 for C[C@@H]1CN(c2nnc(-c3ccc(C(F)(F)F)cc3O)c3ccncc23)C[C@H](C)[C@H]1O (single isomer, unassigned) [Example 18] , please?
[out] 23

[in] Name the recorded EC50 for Oc1cc(C(F)(F)F)ccc1-c1nnc(N2C[C@@H]3[C@H](C2)C3(F)F)c2ncccc12 [Example 41] .
[out] 999

----------
Listed next: entries and their corresponding EC50.
# TEST_SYSTEM: NLRP3 inflammasome (Homo sapiens)
# Construct: host or cells: THP-1 human monocytic cells, PMA-treated, stimulated with gramicidin
# TEST: ASC-SPECK formation in THP-1 cells after gramicidin stimulation (NLRP3 inflammasome activation)
# Format: cell-based
# ASSAY_SETUP: PMA-treated human monocytic THP-1 cells, compound 1 h before 12.5 ug/ml gramicidin, 3 h, ASC SPECK imaging; read-out: EC50 (nM) for Examples that inhibit NLRP3 inflammasome activation
# Method: The ability of compounds to inhibit NLRP3 inflammasome activation was determined in vitro by monitoring formation of the ASC-SPECK in human monocytic THP-1 cells after stimulation. […] Immunofluorescence staining: Anti-ASC antibody (MBL catalog #D086-3) was desalted and labeled with Alexa 488 antibody labeling kit (Thermo catalog #A20181) prior to use as described below. […] The number of DRAQ5 positive cells containing ASC SPECKS were quantified in each well. […]
Write the value in nM as a bare number.

These recorded examples may help you get a feel for the data.
C[C@@H]1CN(c2nnc(-c3ccc(C(F)(F)F)cc3O)c3ncccc23)C[C@H](C)O1 [Example 6] ... 1850
Oc1cc(C(F)(F)F)ccc1-c1nnc(N2CC(O)C3(CC3)C2)c2ncccc12 (racemic) [Example 44] ... 591
C[C@]1(O)CCN(c2nnc(-c3ccc(C(F)(F)F)cc3O)c3ccc(C(F)F)nc23)C1 [Example 56] ... 90
Oc1cc(C(F)(F)F)ccc1-c1nnc(N2CCC(O)(C3CC3)C2)c2ncccc12 (racemic) [Example 45] ... 1180
Oc1cc(C(F)(F)F)ccc1-c1nnc(N2CCC3(CCOC3)CC2)c2ncccc12 [Example 31] ... 915

Now, please, on to the next compound.
[in] What value of EC50 on NLRP3 inflammasome (Homo sapiens) does CN1C(=O)CCC12CCN(c1nnc(-c3ccc(C(F)(F)F)cc3O)c3cccnc13)CC2 [Example 39] have?
[out] 563
